Literature compilation of pIC50 measurements on Galectin-1 (Homo sapiens, UniProt P09382).
pIC50: −log10 of the molar value.

compound	pIC50
CCN(C)C(=O)C(S[C@@H]1O[C@H](CO)[C@H](O)[C@H](n2cc(-c3cc(F)cc(Cl)c3)nn2)[C@H]1O)C1(O)CCOCC1 (stereo partly drawn)	6.89
C=C(C=CCO[C@@H]1O[C@H](CO)[C@H](O)[C@H](O)[C@H]1O)CN1C(=O)c2c3nc(cc4[nH]c(cc5nc(cc6[nH]c2c(c6C)C1=O)C(CC)=C5C)c(CC)c4C)C(C)C3CCC(=O)OC (mixture of isomers)	3.94
CC(C)(O)C(S[C@@H]1O[C@H](CO)[C@H](O)[C@H](n2cc(-c3cc(F)c(F)c(F)c3)nn2)[C@H]1O)c1cccc(Cl)c1Cl (stereo partly drawn)	5.43
